# EXPERIMENT: Preventing trimethylamine odor by addition of compounds before heating ergothioneine with sodium hydroxide
# Assay type: physicochemical
# RUN PARAMETERS: test sample 0.01%; about 0.05% ergothioneine, 0.1N NaOH; litmus paper
PARAMETER: pH
Please reply with the value in numeric form only.

Input Cl [Hydrochloric acid] . Output pH: 10

Input `CC(=O)O` . Output pH: 10.5

Input O=S([O-])S(=O)(=O)[O-].[Na+].[Na+] [sodium metabisulfite] . Output pH: 10

Input `O=C1O[C@H]([C@@H](O)CO)C(O)=C1O` . Output pH: 10.5

###

Assignment: determine reported % EGT (w/v) for the given compounds.
# EXPERIMENT: Preventing trimethylamine odor by addition of compounds before heating ergothioneine with sodium hydroxide
# Type: physicochemical
# RUN PARAMETERS: test sample 0.05%; 0.1N NaOH, boiled 10 minutes; HPLC

Input `O=C1O[C@H]([C@@H](O)CO)C(O)=C1O` . Output % EGT (w/v): 0.050 % (w/v)

Input `CC(=O)O` . Output % EGT (w/v): 0.052 % (w/v)

Input `O=P(O)(O)O` . Output % EGT (w/v): 0.054 % (w/v)

Input `OB(O)O` . Output % EGT (w/v): 0.051 % (w/v)

Input `O=C(O)CC(O)(CC(=O)O)C(=O)O` . Output % EGT (w/v): 0.053 % (w/v)

Input O=S([O-])S(=O)(=O)[O-].[Na+].[Na+] [sodium metabisulfite] . Output % EGT (w/v): 0.037 % (w/v)
